# System: S. intemrdius c.i.
# procedure-text: MIC/MBC broth microdilution, S. intermedius
# Assay type: cell-based, Staphylococcus intermedius
# conditions: H2O
Residues, ends and D or L forms follow the SMILES beside them.
What MIC was measured for each of the following?

stdin: So what does the record say about MIC for CC(C)C[C@H](NC(=O)[C@H](CCCNC(=N)N)NC(=O)OCc1ccccc1)C(=O)N[C@H](CNC(=O)C(=Cc1ccccc1)c1ccccc1)C(C)C [Compound A-164] ?
stdout: 16 µg/mL

stdin: So what does the record say about MIC for CC(C)[C@@H](CNC(=O)C(=Cc1ccccc1)c1ccccc1)NC(=O)[C@H](CCCNC(=N)N)NC(=O)[C@H](CCCCNC(=N)N)NC(=O)OCc1ccccc1 [Compound A-192] ?
stdout: 8 µg/mL

stdin: So what does the record say about MIC for CC(C)[C@@H](CNC(=O)C(=Cc1ccccc1)c1ccccc1)NC(=O)[C@H](Cc1c[nH]cn1)NC(=O)[C@H](CCCCNC(=N)N)NC(=O)OCc1ccccc1 [Compound A-193] ?
stdout: 16 µg/mL

stdin: So what does the record say about MIC for CC(C)C[C@H](NC(=O)[C@H](CCCNC(=N)N)NC(=O)OCc1ccccc1)C(=O)N[C@H](C(=O)NCCc1ccccc1)C(C)C [Compound A-196] (HELM PEPTIDE1{[O=C(OCc1ccccc1)[*:2]].R.L.V.[c1ccc(CCN[*:1])cc1]}$$$$V2.0) ?
stdout: 32 µg/mL

stdin: So what does the record say about MIC for CC(C)[C@@H](CNC(=O)C(=Cc1ccccc1)c1ccccc1)NC(=O)[C@H](CCCNC(=N)N)NC(=O)[C@H](CCCNC(=N)N)NC(=O)OCc1ccccc1 [Compound A-179] ?
stdout: 16 µg/mL

stdin: So what does the record say about MIC for CC(C)[C@@H](CNC(=O)C(=Cc1ccccc1)c1ccccc1)NC(=O)[C@H](CCCNC(=N)N)NC(=O)[C@H](CCCCN)NC(=O)OCc1ccccc1 [Compound A-191] ?
stdout: 32 µg/mL

stdin: So what does the record say about MIC for Cc1ccccc1COC(=O)N[C@@H](CCCNC(=N)N)C(=O)N[C@@H](CC(C)C)C(=O)N[C@H](CNC(=O)/C=C/c1ccccc1)C(C)C [Compound A-210] ?
stdout: 16 µg/mL

stdin: So what does the record say about MIC for CC[C@@H](CNC(=O)/C=C/c1ccccc1)NC(=O)[C@H](CC(C)C)NC(=O)[C@H](CCCNC(=N)N)NC(=O)OCc1ccccc1 [Compound A-213] ?
stdout: 32 µg/mL
